Can you tell me Ki for the items I'm about to list?
target: human GABAA α2β2γ1 receptor (Homo sapiens (Human), UniProt P47869+Q8N1C3); assay: Radioligand binding assay, competition for [3H]RO7239181, γ1-containing GABAA subtypes; details: Ki h-GABAA α2β2γ1, membranes of HEK293F cells, [3H]RO7239181 20-30 nM, Table 1
Note: unit nM is implicit; provide only the numeric part.

**Query** # input compound: `Cc1nc2n(n1)-c1sc3c(c1C(c1c(F)cccc1F)=N[C@H]2C)CCCCC3` ; wanted: its Ki
**Result** 12.6

**Query** # input compound: `[2H]C1([2H])OCc2c(sc3c2C(c2c(F)cccc2F)=N[C@@H](C)c2nc(C(=O)N4CCC4)nn2-3)OC1([2H])[2H]` ; wanted: its Ki
**Result** 6.3

**Query** # input compound: `C[C@@H]1N=C(c2c(F)cccc2F)c2c(sc3c2COCCC3)-n2nc(C(=O)NC[C@@](C)(O)C(F)(F)F)nc21` ; wanted: its Ki
**Result** 49.9

**Query** # input compound: `C[C@@H]1N=C(c2c(F)cccc2F)c2c(sc3c2COCCC3)-n2cc(C(=O)NCC(C)(C)O)nc21` ; wanted: its Ki
**Result** 21.3

* * *

molecular target: h-GABA-A α2β2γ1 (Homo sapiens (Human), UniProt P47869+Q8N1C3); assay: Two-electrode voltage clamp electrophysiology in Xenopus oocytes expressing GABAA receptors; assay type: cell-based; details: Xenopus oocytes, GABA EC20, compound at about 30-fold its Ki α2β2γ1
Response field label: string, one of t (Fold increase h-GABA-A α2β2γ1 oocyte @ 30-fold Ki strictly below 2) or f.

**Query** Please indicate whether the reported Fold increase h-GABA-A α2β2γ1 oocyte @ 30-fold Ki of `Cc1nnc2n1-c1sc3c(c1C(c1c(F)cccc1F)=NC2)CCCCO3` is strictly below 2.
**Result** f

**Query** Please indicate whether the reported Fold increase h-GABA-A α2β2γ1 oocyte @ 30-fold Ki of `C[C@@H]1N=C(c2c(F)cccc2F)c2c(sc3c2COCCO3)-n2c(C(F)F)nnc21` is strictly below 2.
**Result** f

**Query** Please indicate whether the reported Fold increase h-GABA-A α2β2γ1 oocyte @ 30-fold Ki of `Cc1nnc2n1-c1sc3c(c1C(c1c(F)cccc1Cl)=N[C@H]2C)COCCO3` is strictly below 2.
**Result** t

**Query** Please indicate whether the reported Fold increase h-GABA-A α2β2γ1 oocyte @ 30-fold Ki of Cc1nnc2n1-c1sc3c(c1C(c1c(F)cccc1F)=N[C@H]2C)CCC(F)C(F)C3 (single isomer, unassigned) is strictly below 2.
**Result** f

**Query** Please indicate whether the reported Fold increase h-GABA-A α2β2γ1 oocyte @ 30-fold Ki of Cc1nnc2n1-c1sc3c(c1C(c1c(F)cccc1F)=N[C@H]2C)CC[C@H](F)CC3 (single isomer, unassigned) is strictly below 2.
**Result** f

**Query** Please indicate whether the reported Fold increase h-GABA-A α2β2γ1 oocyte @ 30-fold Ki of `C[C@@H]1N=C(c2c(F)cccc2F)c2c(sc3c2COCCC3)-n2cc(C(=O)NCC3(O)CC3)nc21` is strictly below 2.
**Result** f

**Query** Please indicate whether the reported Fold increase h-GABA-A α2β2γ1 oocyte @ 30-fold Ki of `C[C@@H]1N=C(c2c(F)cccc2F)c2c(sc3c2COCCO3)-n2nc(C(=O)NC[C@@](C)(O)C(F)(F)F)nc21` is strictly below 2.
**Result** t

**Query** Please indicate whether the reported Fold increase h-GABA-A α2β2γ1 oocyte @ 30-fold Ki of `Cc1nc2n(n1)-c1sc3c(c1C(c1c(F)cccc1F)=N[C@H]2C)COCCC3` is strictly below 2.
**Result** t

**Query** Please indicate whether the reported Fold increase h-GABA-A α2β2γ1 oocyte @ 30-fold Ki of `C[C@@H]1N=C(c2c(F)cccc2F)c2c(sc3c2COC[C@H](C)O3)-n2nc(C(=O)N3CC(F)C3)nc21` is strictly below 2.
**Result** f

**Query** Please indicate whether the reported Fold increase h-GABA-A α2β2γ1 oocyte @ 30-fold Ki of `CCc1nnc2n1-c1sc3c(c1C(c1c(F)cccc1F)=N[C@H]2C)COCCO3` is strictly below 2.
**Result** f

**Query** Please indicate whether the reported Fold increase h-GABA-A α2β2γ1 oocyte @ 30-fold Ki of `Cc1nnc2n1-c1sc3c(c1C(c1c(F)cccc1Cl)=N[C@H]2C)COCCC3` is strictly below 2.
**Result** f

**Query** Please indicate whether the reported Fold increase h-GABA-A α2β2γ1 oocyte @ 30-fold Ki of `C[C@@H]1N=C(c2c(F)cccc2F)c2c(sc3c2COCCC3)-n2cc(C(=O)NCCO)nc21` is strictly below 2.
**Result** f

**Query** Please indicate whether the reported Fold increase h-GABA-A α2β2γ1 oocyte @ 30-fold Ki of `C[C@@H]1N=C(c2c(F)cccc2F)c2c(sc3c2COCCO3)-n2nc(C(=O)N3CC(OC(C)(C)C)C3)nc21` is strictly below 2.
**Result** t

**Query** Please indicate whether the reported Fold increase h-GABA-A α2β2γ1 oocyte @ 30-fold Ki of `Cc1nnc2n1-c1sc3c(c1C(c1c(F)cccc1F)=N[C@H]2C)COCCC3` is strictly below 2.
**Result** f

Reference source for all entries: patent US20240294543A1
